Measured TGI, listed per entry for reference.
- Test system: NCI-H226 lung
- measurement_notes: NCI tumour cell line growth inhibition, 48 h
// note: answer is a bare numeric in µM

O=C(Nc1ccc2[nH]c3c(-c4ccccc4)nccc3c2c1)c1ccccc1[N+](=O)[O-] ... 6.2

Now let's try a different one.
Enquiry: Can you look up the measured TGI of COc1cc(C2CC(c3cccc(Nc4ccnc5cc(Cl)ccc45)c3)=NN2C=O)cc(OC)c1OC (stereo not given) for me?
Return: 6.15

---

- Tested on: UACC-62 melanoma
- measurement_notes: NCI tumour cell line growth inhibition, 48 h; in the data active = GI50 below about 0.43 µM; inactive = the rest
Outcomes you can answer with include only these: 1.0 for active, 0.0 for inactive

Here's what some known entries look like.
[C-]#[O+].[C-]#[O+].[C-]#[O+].[C-]#[O+].[O-]C(c1ccccc1[PH+]1OC(C(F)(F)F)(C(F)(F)F)c2ccccc21)(C(F)(F)F)C(F)(F)F.[Re] (stereo not given) ... 0.0
COc1cccc2c1C(=O)c1c(O)c3c(c(O)c1C2=O)C[C@@](O)(C(C)=O)C[C@@H]3O[C@H]1C[C@H](N)[C@H](O)[C@H](C)O1 ... 1.0
CCCN1CCN(c2ccc3nc(-c4ccc5nc(-c6ccc(C(F)(F)F)cc6)[nH]c5c4)[nH]c3c2)CC1 ... 0.0
O=C(NCCCN1CCC(N2CCCCC2)CC1)C1=Cc2cc(Br)ccc2OC1 ... 0.0
COc1ccc(NC(=O)Nc2ccccc2CNc2nc(Nc3ccc(OCCN4CCCC4)cc3)ncc2Cl)cc1 ... 0.0
O=c1oc2ccc(Br)cc2c(=O)n1-c1ccc(Br)cc1F ... 1.0

Enquiry: // outcome(item) with item = COc1cc2c(/C=C3\C(=O)N(C)c4ccc(O)cc43)c[nH]c2cc1C
Return: 0.0

Enquiry: // outcome(item) with item = Oc1c(I)cc(I)cc1CNCCN(Cc1ccccn1)Cc1ccccn1
Return: 0.0

Enquiry: // outcome(item) with item = O=C1C(Br)=CC2C1C1C3CCC3C2(Br)C12OCCO2 (stereo not given)
Return: 0.0

Enquiry: // outcome(item) with item = CCC(=O)c1c(C(F)(F)F)n([O-])c2cc(N3CCNCC3)c(F)cc2[n+]1=O
Return: 0.0

---

- Tested on: CAKI-1 renal
- measurement_notes: NCI tumour cell line growth inhibition, 48 h
measure: GI50

CCC(=O)c1c(C(F)(F)F)n([O-])c2cc(N3CCNCC3)c(F)cc2[n+]1=O ... 3270 nM
O=C(NCCCN1CCC(N2CCCCC2)CC1)C1=Cc2cc(Br)ccc2OC1 ... 2460 nM
CSc1nc(N)cc(Oc2ccc(-c3nc(Nc4cccc(C(F)(F)F)c4)n[nH]3)cc2)n1 ... 640 nM

Now let's try a different one.
Enquiry: Can you look up the measured GI50 of Cc1cc(Nc2nc(-c3ccc(F)cc3)nc3ccccc23)n[nH]1 for me?
Return: 453 nM

---

- System: NCI-H23 lung
- measurement_notes: NCI tumour cell line growth inhibition, 48 h
Measured TGI, listed per entry for reference.

Cc1c2c(nn1-c1ccc(S/N=C3\SCC(=O)CN3Cc3ccccc3)cc1)-c1ccccc1CC2 ... > 100 µM
Cc1nn(-c2ccccc2)c2nc3c(c(C)nn3-c3ccccc3)c(-c3ccc(C(F)(F)F)cc3)c12 ... > 100 µM
CC(C)c1cc2c(c(O)c1O)[C@@]1(C)CCCC(C)(C)C1=C(O)C2 ... 6.8 µM
O=C1C=CC=C[C@@H]2C(C3OCCO3)CC[C@H]12.[C-]#[O+].[C-]#[O+].[C-]#[O+].[Fe] (stereo partly specified) ... > 83.7 µM

Enquiry: Can you look up the measured TGI of C1OC1C1CO1 (stereo unspecified) for me?
Return: > 100 µM

Enquiry: Can you look up the measured TGI of CCc1nnc(CC)n1N1C(=O)CCC1=O for me?
Return: > 100 µM

Enquiry: Can you look up the measured TGI of CNC(=O)Oc1ccc(C(=S)Nc2ccc(Br)cc2)cc1 for me?
Return: 38.3 µM

Enquiry: Can you look up the measured TGI of Oc1c(I)cc(I)cc1CNCCN(Cc1ccccn1)Cc1ccccn1 for me?
Return: 4.66 µM

Enquiry: Can you look up the measured TGI of CCNCC(O)COc1ccc2c(c1)[n+]([O-])nc(N)[n+]2[O-] (stereo unspecified) for me?
Return: > 100 µM

Enquiry: Can you look up the measured TGI of CN(C)CCn1cnc2sc3ccccc3c21 for me?
Return: > 100 µM

Enquiry: Can you look up the measured TGI of O=C1Nc2ccccc2/C1=C\c1c[nH]c2ccc(Br)cc12 for me?
Return: 5.61 µM

Enquiry: Can you look up the measured TGI of O=C(CSc1nnc(-c2ccccn2)s1)N/N=C/c1ccc([N+](=O)[O-])cc1 for me?
Return: > 100 µM

Enquiry: Can you look up the measured TGI of COc1ccc(C2C(C#N)=C(N)Oc3c2sc2c(F)cccc32)cc1 (stereo unspecified) for me?
Return: 21.8 µM

Enquiry: Can you look up the measured TGI of O=C(CC(=O)N1N=C(N2c3ccccc3Sc3ccccc32)CC1c1ccccc1)Nc1ccccc1Cl (stereo unspecified) for me?
Return: > 100 µM

Enquiry: Can you look up the measured TGI of O=S(=O)(O)c1cc(N=Nc2cccc3ccccc23)c(O)c2ncccc12 for me?
Return: > 100 µM

Enquiry: Can you look up the measured TGI of Nc1cccc(C2CCCc3c2[nH]c2ccccc32)c1 (stereo unspecified) for me?
Return: 46.4 µM

Enquiry: Can you look up the measured TGI of Cc1ncc(C(=O)Nc2ccc(CN3CCN(C)CC3)c(C(F)(F)F)c2)cc1C#Cc1c(N)ncc2ccc(F)cc12 for me?
Return: 1.37 µM

Enquiry: Can you look up the measured TGI of Cc1nc(-c2nc(C)c(C(=O)/C=C/c3ccc([N+](=O)[O-])cc3)s2)sc1C(=O)/C=C/c1ccc([N+](=O)[O-])cc1 for me?
Return: > 100 µM

Enquiry: Can you look up the measured TGI of CCN(CC)CCCNc1[nH]ncc2cc3c(nc4ccc(OC)cc43)c(C)c12 for me?
Return: 24.6 µM

Enquiry: Can you look up the measured TGI of CC(NC(=O)OC(C)(C)C)C(=O)NC(Cc1ccccc1)C(=O)NCC(=O)ON=C1CCCC1 (stereo unspecified) for me?
Return: > 100 µM

Enquiry: Can you look up the measured TGI of CN(C(=O)Nc1ccc(Cl)c(Cl)c1)C1CCCC[C@@H]1N1CCCC1 (stereo partly specified) for me?
Return: > 100 µM

---

- Test system: SK-OV-3 ovarian
- measurement_notes: NCI tumour cell line growth inhibition, 48 h; in the data active = GI50 below about 0.43 µM; inactive = the rest
Outcomes you can answer with include only these: active, inactive

Here's what some known entries look like.
CCN(CC)c1ccc(/C=N/NC(=O)c2ccc(S(C)(=O)=O)cc2)c(O)c1 ... active
O=C1/C(=C\c2ccc(Cl)cc2)CCOc2c1ccc1ccccc21 ... inactive
Clc1ccc(CNc2ccc3nc(CCC4CCCCC4)[nH]c3c2)cc1 ... inactive

Enquiry: // outcome(item) with item = CCC(=O)c1c(C(F)(F)F)n([O-])c2cc(N3CCNCC3)c(F)cc2[n+]1=O
Return: inactive

Enquiry: // outcome(item) with item = COc1cccc(/C(COc2ccc3c(c2)oc(=O)c2ccccc23)=N\O)c1
Return: inactive

Enquiry: // outcome(item) with item = Cc1cc(Nc2nc(-c3ccc(F)cc3)nc3ccccc23)n[nH]1
Return: inactive

Enquiry: // outcome(item) with item = COc1cccc2c1C(=O)c1c(O)c3c(c(O)c1C2=O)C[C@@](O)(C(C)=O)C[C@@H]3O[C@H]1C[C@H](N)[C@H](O)[C@H](C)O1
Return: active

Enquiry: // outcome(item) with item = O=C(NCCCN1CCC(N2CCCCC2)CC1)C1=Cc2cc(Br)ccc2OC1
Return: inactive

Enquiry: // outcome(item) with item = O=C1C=CC=C[C@@H]2C(C3OCCO3)CC[C@H]12.[C-]#[O+].[C-]#[O+].[C-]#[O+].[Fe] (some centres undefined)
Return: inactive

---

Measured TGI, listed per entry for reference.
- Test system: U251 CNS
- measurement_notes: NCI tumour cell line growth inhibition, 48 h

Solved entries (count: 5):
COc1ccc(-c2c(C#N)c(=O)nc(SC)n2C2OCC(OC(C)=O)C(OC(C)=O)C2OC(C)=O)cc1 (configuration not stated) ... > 100 µM
CS(=O)(=O)CCN(CC#N)Cc1ccc(-c2ccc3ncnc(Nc4ccc(OCc5cccc(F)c5)c(Cl)c4)c3c2)o1 ... > 25 µM
c1ccc(-c2[o+]c(-c3ccccc3)c(-c3ccccc3)c(-c3ccccc3)c2-c2ccccc2)cc1 ... > 100 µM
O=C1C=CC=C[C@@H]2C(C3OCCO3)CC[C@H]12.[C-]#[O+].[C-]#[O+].[C-]#[O+].[Fe] (some centres not stated) ... > 82.5 µM
COc1ccc(C2(O)C(S(=O)(=O)c3ccc(C)cc3)=Cc3ccc(OC)cc32)cc1 (configuration not stated) ... > 100 µM

Enquiry: Can you look up the measured TGI of OC/C=C/[C@H](OCc1ccccc1)[C@H](/C=C/CO)OCc1ccccc1 for me?
Return: 69.1 µM
